Reported IC50 by item:
- experimental.system: GlyT1 (Homo sapiens)
- Construct: expressed in transfected cells
- method.notes: Glycine Transporter 1 (GlyT1) uptake assay, scintillation proximity assay of [14C]-glycine uptake
- Assay type: cell-based
- reported.conditions: SPA, four parameter logistic fit, read-out: GlyT1 (pIC50) (converted)

Sample records with IC50:
// query Find the recorded IC50 belonging to "CC(C)COc1ccc(S(C)(=O)=O)cc1C(=O)N1Cc2cn(-c3cc(Cl)ccc3F)nc2C1" and report it.
// result < 100 nM

// query Again, but for "CC(C)(C)COc1ccc(S(C)(=O)=O)cc1C(=O)N1Cc2cn(-c3ccc(F)c(C(F)F)c3)nc2C1"
// result < 100 nM

New cases:
// query Find the recorded IC50 belonging to "COc1ncc(F)cc1-n1cc2c(n1)CN(C(=O)c1c(O[C@@H](C)C(F)(F)F)ccc(C#N)c1Cl)C2" and report it.
// result < 100 nM

// query Again, but for "C[C@H](Oc1ccc(C#N)cc1C(=O)N1Cc2cn(C3CCCC3)nc2C1)C(F)(F)F"
// result 100 to 1000 nM

---

- experimental.system: GlyT1 (Homo sapiens, UniProt P48067)
- Construct: expressed in transfected cells
- Sequence (P48067 whole entry): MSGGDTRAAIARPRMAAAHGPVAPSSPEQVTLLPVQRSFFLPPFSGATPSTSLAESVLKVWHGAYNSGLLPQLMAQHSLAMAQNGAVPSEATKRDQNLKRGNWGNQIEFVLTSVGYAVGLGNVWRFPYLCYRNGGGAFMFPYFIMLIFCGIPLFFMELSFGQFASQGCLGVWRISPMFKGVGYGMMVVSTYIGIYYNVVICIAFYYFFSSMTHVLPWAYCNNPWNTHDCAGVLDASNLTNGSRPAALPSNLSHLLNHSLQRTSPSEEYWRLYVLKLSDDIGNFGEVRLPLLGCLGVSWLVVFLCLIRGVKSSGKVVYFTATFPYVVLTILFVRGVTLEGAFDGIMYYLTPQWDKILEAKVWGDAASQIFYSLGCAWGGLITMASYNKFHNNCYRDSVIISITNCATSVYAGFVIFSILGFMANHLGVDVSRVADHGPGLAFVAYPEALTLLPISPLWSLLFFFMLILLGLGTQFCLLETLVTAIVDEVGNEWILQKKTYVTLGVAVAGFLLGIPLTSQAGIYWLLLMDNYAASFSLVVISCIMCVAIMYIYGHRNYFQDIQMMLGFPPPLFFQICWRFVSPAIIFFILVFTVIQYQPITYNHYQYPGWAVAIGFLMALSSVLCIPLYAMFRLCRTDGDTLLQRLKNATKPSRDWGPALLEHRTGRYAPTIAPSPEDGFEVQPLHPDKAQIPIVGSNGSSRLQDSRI
- method.notes: Glycine Transporter 1 (GlyT1) uptake assay, scintillation proximity assay of [14C]-glycine uptake
- Assay type: cell-based
- reported.conditions: SPA, four parameter logistic fit, read-out: GlyT1 (pIC50) (converted)
Reported IC50 by item:

Sample records with IC50:
// query Find the recorded IC50 belonging to "CC(C)COc1ccc(S(C)(=O)=O)cc1C(=O)N1Cc2cn(-c3cccc(C(F)(F)F)c3)nc2C1" and report it.
// result < 100 nM

// query Again, but for "Cc1cccnc1-n1cc2c(n1)CN(C(=O)c1c(O[C@@H](C)C(F)(F)F)ccc(C#N)c1Cl)C2"
// result 100 to 1000 nM

// query Again, but for "COc1c(C#N)ccc(O[C@@H](C)C(F)(F)F)c1C(=O)N1Cc2cn(-c3cn(C)c(C)n3)nc2C1"
// result 100 to 1000 nM

Shifting focus to the molecule that follows.
// query Find the recorded IC50 belonging to "Cc1cc(F)cnc1-n1cc2c(n1)CN(C(=O)c1cc(C#N)ccc1O[C@@H](C)C(F)(F)F)C2" and report it.
// result 100 to 1000 nM

---

- experimental.system: GlyT1 (Homo sapiens)
- Construct: expressed in transfected cells
- method.notes: Glycine Transporter 1 (GlyT1) uptake assay, scintillation proximity assay of [14C]-glycine uptake
- Assay type: cell-based
- reported.conditions: SPA, four parameter logistic fit, read-out: GlyT1 (pIC50) (converted)
- Description: Glycine Transporter 1 (GlyT1) Uptake Assay Plates were then read on a MicroBeta plate counter (Perkin Elmer). Dose-response data for tested compounds were analyzed and curves were fit using a four parameter logistic fit to determine IC50 values. […]
Reported IC50 by item:

// query Find the recorded IC50 belonging to CS(=O)(=O)c1ccc(N2CCC(F)(F)CC2)c(C(=O)N2Cc3cn(CC4CCC4)nc3C2)c1 [Example 431] and report it.
// result < 100 nM

// query Again, but for COc1c(C#N)ccc(O[C@@H](C)C(F)(F)F)c1C(=O)N1Cc2cn(-c3cc(C)ccn3)nc2C1 [Example 274]
// result < 100 nM

// query Again, but for COc1c(C#N)ccc(OC(C)C(F)(F)F)c1C(=O)N1CCc2nn(-c3ccccn3)cc2C1 (stereo not shown) [Example 217]
// result 100 to 1000 nM

// query Again, but for C[C@H](Oc1ccc(C#N)c(Cl)c1C(=O)N1Cc2cn(-c3ccccn3)nc2C1)C(F)(F)F [Example 264]
// result < 100 nM

// query Again, but for COc1c(C#N)ccc(O[C@@H](C)C(F)(F)F)c1C(=O)N1Cc2cn(-c3ccc(C#N)cc3)nc2C1 [Example 283]
// result < 100 nM

// query Again, but for COc1c(C#N)ccc(C2(F)CCC2)c1C(=O)N1CCc2nn(-c3ccc(F)cc3)cc2C1 [Example 489]
// result 100 to 1000 nM

Shifting focus to the molecule that follows.
// query Find the recorded IC50 belonging to CS(=O)(=O)c1ccc(-c2cccc(F)c2)c(C(=O)N2Cc3cn(-c4ccncc4)nc3C2)c1 [Example 142] and report it.
// result < 100 nM

Source: patent US9708334B2
